src = paper PMC12627007

# Tested on: HIV-1 MDR (74V, 41L, 106A, 215Y)
# Measurement description: Inhibition of virus-induced cytopathogenicity in MT-4 cells, NRTI-resistant mutant MDR
# Type: cell-based
# Study conditions: Human immunodeficiency virus 1, MT4, read-out: EC50 MDR
pEC50: −log10 of the molar value.
Entries and their pEC50 values follow.

- Sample smiles: "Cc1ccc(S(=O)(=O)Nn2sc3ccccc3c2=O)cc1"
  pEC50: 5.22
- Sample smiles: "Cc1ccc(S(=O)(=O)N(n2sc3ccccc3c2=O)S(=O)(=O)c2ccc(C)cc2)cc1"
  pEC50: 4.20
- Sample smiles: "O=c1c2ccccc2sn1NS(=O)(=O)c1cccc(Cl)c1"
  pEC50: 5.22
- Sample smiles: "O=c1c2ccccc2sn1NS(=O)(=O)c1ccccc1Cl"
  pEC50: 5.15

---

# Measurement description: Cytotoxicity in mock-infected MT-4 cells (MTT method)
# Assay type: cell-based
# Study conditions: human
CC50 at 4 days values for the compounds below.
Reported endpoint: CC50 at 4 days (µM)

- Sample smiles: "O=c1c2ccccc2sn1NS(=O)(=O)c1ccc(Cl)cc1"
  Value qualifier: "="
  Test result: 33
- Sample smiles: "Cc1ccc(S(=O)(=O)N(n2sc3ccccc3c2=O)S(=O)(=O)c2ccc(C)cc2)cc1"
  Value qualifier: ">"
  Test result: 100
- Sample smiles: "Cc1ccc2sn(NS(=O)(=O)c3ccccc3Cl)c(=O)c2c1"
  Value qualifier: "="
  Test result: 73
- Sample smiles: "O=c1c2ccccc2sn1N(S(=O)(=O)c1ccc(F)cc1)S(=O)(=O)c1ccc(F)cc1"
  Value qualifier: "="
  Test result: 36
- Sample smiles: "O=c1c2ccccc2sn1NS(=O)(=O)c1ccccc1Cl"
  Value qualifier: "="
  Test result: 73

---

# Tested on: HIV-1 SAQR (L10F, G48V, L90M)
# Measurement description: Inhibition of virus-induced cytopathogenicity in MT-4 cells, PRI-resistant mutant SAQR
# Type: cell-based
# Study conditions: in round brackets

- Compound: "O=c1c2ccccc2sn1NS(=O)(=O)c1cc(Cl)cc(Cl)c1 [Compound 16]"
  Value qualifier: "="
  Selectivity Index (SI = CC50/EC50) SAQR: 7
- Compound: "O=c1c2cc(Cl)ccc2sn1NS(=O)(=O)c1ccccc1Cl [Compound 18]"
  Value qualifier: ">"
  Selectivity Index (SI = CC50/EC50) SAQR: 6
- Compound: "O=c1c2ccccc2sn1NS(=O)(=O)c1ccccc1Cl [Compound 12]"
  Value qualifier: "="
  Selectivity Index (SI = CC50/EC50) SAQR: 8

---

# System: HIV-1 A17 (K103N + Y181C)
# Measurement description: Inhibition of virus-induced cytopathogenicity in MT-4 cells, NNRTI-resistant mutant A17
# Type: cell-based
# Study conditions: in round brackets

- Compound: "O=c1c2ccccc2sn1N(S(=O)(=O)c1ccccc1)S(=O)(=O)c1ccccc1 [Compound 20]"
  Value qualifier: ">"
  Selectivity Index (SI = CC50/EC50) A17: 4
- Compound: "COc1ccc(S(=O)(=O)Nn2sc3ccccc3c2=O)cc1 [Compound 9]"
  Value qualifier: "="
  Selectivity Index (SI = CC50/EC50) A17: 7
- Compound: "O=c1c2ccccc2sn1NS(=O)(=O)c1cc(Cl)cc(Cl)c1 [Compound 16]"
  Value qualifier: "="
  Selectivity Index (SI = CC50/EC50) A17: 7
- Compound: "O=c1c2ccccc2sn1N(S(=O)(=O)c1ccc([N+](=O)[O-])cc1)S(=O)(=O)c1ccc([N+](=O)[O-])cc1 [Compound 22]"
  Value qualifier: ">"
  Selectivity Index (SI = CC50/EC50) A17: 5
- Compound: "O=c1c2cc(Cl)ccc2sn1NS(=O)(=O)c1ccccc1Cl [Compound 18]"
  Value qualifier: ">"
  Selectivity Index (SI = CC50/EC50) A17: 5
